Target: Sphingosine 1-phosphate receptor 3 (Homo sapiens) (UniProt Q99500)
Sequence (Q99500 whole entry, looked up): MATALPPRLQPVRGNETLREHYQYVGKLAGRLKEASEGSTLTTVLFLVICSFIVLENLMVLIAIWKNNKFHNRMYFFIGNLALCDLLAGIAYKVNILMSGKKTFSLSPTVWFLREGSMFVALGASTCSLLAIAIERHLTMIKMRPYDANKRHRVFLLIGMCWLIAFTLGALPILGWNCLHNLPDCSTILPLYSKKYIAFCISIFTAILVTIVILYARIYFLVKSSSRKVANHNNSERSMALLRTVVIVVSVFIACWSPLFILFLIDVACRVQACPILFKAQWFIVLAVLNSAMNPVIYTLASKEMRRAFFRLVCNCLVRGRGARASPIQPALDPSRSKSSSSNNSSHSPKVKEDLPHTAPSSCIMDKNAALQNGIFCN
Assay: human S1P3 receptor agonists, primary screen, cell-based, primary and confirmation, NFAT-BLA reporter (AID 373)
Details: S1P3 NFAT-BLA reporter cells, agonism, FRET ratio, at 4.5 µM, active compounds read high, relative to 1 µM S1P, basal subtracted
Screen size: about 60,000 compounds; about 60 (0.1%) were called active. Only a selection was taken, and actives are over-represented in it overall.
RECORDED_ENDPOINT: activation (%)
Provide only the numeric value, understood in %.

MOLECULE	REPORTED
CN(CCc1ccccn1)S(=O)(=O)c1ccc2c3c(cccc13)C(=O)N2	0.3
COc1ccc(S(=O)(=O)N2CCC(C(=O)N3CCOCC3)CC2)cc1OC	-0.8
COc1ccc(C(C)=O)cc1COC(=O)Cn1cnc2ccccc2c1=O	0.7

Q) Missing value: activation, Sphingosine 1-phosphate receptor 3 (Homo sapiens) (UniProt Q99500), entry `COC(=O)Cn1c(=NC(=O)CSCC(=O)Nc2cc(C)on2)sc2ccccc21` . Fill in?
A) -0.5

Q) Also need `Cc1cc(C)c2nc(SCCC#N)nc(C)c2c1` , thanks.
A) -0.8

Q) Moving on to the next molecule: `COCCNC(=O)Cn1cc2c(n1)CCCCC2`
A) -0.2

Q) Same thing, different molecule: CCn1ncc(C2=NOC(C(=O)Nc3ccccc3C(=O)OC)C2)c1C (configuration not stated)
A) -0.6

---

Listing: activation of selected compounds
Molecular target: Sphingosine 1-phosphate receptor 3 (Homo sapiens)
Test: human S1P3 receptor agonists, primary screen, cell-based, primary and confirmation, NFAT-BLA reporter (AID 373)
Conditions: S1P3 NFAT-BLA reporter cells, agonism, FRET ratio, at 4.5 µM, active compounds read high, relative to 1 µM S1P, basal subtracted
Among all 60,000 compounds or so, about 60 (0.1%) were called active. The sample holds actives, similar compounds and a random draw of the others, so the mix is not that of the screen.

The examples below pair each entry with its known result.
COMPOUND	activation
CC(C)C(=O)Nc1c(C(=O)c2ccc(F)cc2)oc2ccccc12	-0.2% (inactive)
COc1ccc(-c2noc(COc3ccc(Cl)c(C)c3)n2)cc1	-0.7% (inactive)
CCn1c(=O)cc(O)c2ccccc21	0.7% (inactive)
CCOC(=O)c1sc(/N=C/Nc2nc(C)c(C(=O)OCC)s2)nc1C	-1.5% (inactive)
CCc1cc(=O)oc2cc(C)cc(OC(C)C(=O)O)c12 (centres undefined)	-0.4% (inactive)

Now for another entry.
Q) Please give the measured activation for this compound: `O=C(CCOc1ccccc1)NCc1ccccc1`
A) 0.1% (inactive)

---

Molecular target: Sphingosine 1-phosphate receptor 3 (Homo sapiens)
Test: human S1P3 receptor agonists, primary screen, cell-based, primary and confirmation, NFAT-BLA reporter (AID 373)
Settings: S1P3 NFAT-BLA reporter cells, agonism, FRET ratio, at 4.5 µM, active compounds read high, relative to 1 µM S1P, basal subtracted
About 60 (0.1%) of roughly 60,000 compounds were called active. The sample as a whole holds a higher share of actives than the screen did.
RECORDED_ENDPOINT: activation

Q) Which activation is reported with Sphingosine 1-phosphate receptor 3 (Homo sapiens) for this entry: `CN(C)c1ccnc2sc3c(=O)n(Cc4ccccc4)cnc3c12` ?
A) -1.9% (inactive)

---

Molecular target: Sphingosine 1-phosphate receptor 3 (Homo sapiens) (UniProt Q99500)
Test: human S1P3 receptor agonists, primary screen, cell-based, primary and confirmation, NFAT-BLA reporter (AID 373)
Conditions: S1P3 NFAT-BLA reporter cells, agonism, FRET ratio, at 4.5 µM, active compounds read high, relative to 1 µM S1P, basal subtracted
About 60 (0.1%) of roughly 60,000 compounds were called active. This is one part of a sample in which actives are shown more often than they occur.
Parameter activation: see the listing below.
Give a bare numeral; the unit % is implied.

Example molecules with recorded activation:
MOLECULE	SYSTEM_NAME	REPORTED
CCc1nnc(NC(=O)c2cccs2)s1	Sphingosine 1-phosphate receptor 3 (Homo sapiens) (UniProt Q99500)	0.7
CN(C)c1nc2n(c(=O)n1)CCO2	Sphingosine 1-phosphate receptor 3 (Homo sapiens) (UniProt Q99500)	0.6
O=c1oc2c(CN3CCCCC3)c(O)ccc2c2c1CCCCC2	Sphingosine 1-phosphate receptor 3 (Homo sapiens) (UniProt Q99500)	-1
O=C(OCCO)c1cc(Cl)c(C(=O)OCCO)cc1Cl	Sphingosine 1-phosphate receptor 3 (Homo sapiens) (UniProt Q99500)	-1.2

Q) Any idea what activation was measured for `CCN(CC)S(=O)(=O)c1ccc2nc(COC(=O)c3n[nH]c4ccccc34)[nH]c2c1` ?
A) 0

---

Measured activation, listed per entry.
Molecular target: Sphingosine 1-phosphate receptor 3 (Homo sapiens) (UniProt Q99500)
Assay: human S1P3 receptor agonists, primary screen, cell-based, primary and confirmation, NFAT-BLA reporter (AID 373)
Conditions: S1P3 NFAT-BLA reporter cells, agonism, FRET ratio, at 4.5 µM, active compounds read high, relative to 1 µM S1P, basal subtracted
Among all 60,000 compounds or so, about 60 (0.1%) were called active. The sample as a whole holds a higher share of actives than the screen did.
Respond numerically; units are % and should not be typed.

COMPOUND	REPORTED
COc1ccccc1N=C1SC(C)CN1C(=O)C1CCC1 (configuration not stated)	0.5

Q) // map `Cc1cc(C)n(-c2nc(SCC(=O)N3CCCC3)c3c4c(sc3n2)CCCC4)n1` to recorded activation (system: Sphingosine 1-phosphate receptor 3 (Homo sapiens) (UniProt Q99500))
A) 0

---

Overview of reported activation across a group of compounds:
Target: Sphingosine 1-phosphate receptor 3 (Homo sapiens)
Assay: human S1P3 receptor agonists, primary screen, cell-based, primary and confirmation, NFAT-BLA reporter (AID 373)
Settings: S1P3 NFAT-BLA reporter cells, agonism, FRET ratio, at 4.5 µM, active compounds read high, relative to 1 µM S1P, basal subtracted
The campaign covered roughly 60,000 compounds. About 60 (0.1%) were called active. For the sample, actives were picked, then their nearest neighbours and some compounds at random.
Write the value in % as a bare number.

COMPOUND	SYSTEM_NAME	activation / %
Cc1cc(C)nc(SCc2nnc(SCC(=O)Nc3ncc(C)s3)n2Cc2ccco2)n1	Sphingosine 1-phosphate receptor 3 (Homo sapiens)	0
COC(=O)c1c(-c2ccc(C)cc2)csc1N	Sphingosine 1-phosphate receptor 3 (Homo sapiens)	-0.4
COc1ccc(C)cc1S(=O)(=O)NC1CCCCC1	Sphingosine 1-phosphate receptor 3 (Homo sapiens)	-0.3
COc1ccc(OC)c2c1sc(=NC(=O)CN1C(=O)CCC1=O)n2C	Sphingosine 1-phosphate receptor 3 (Homo sapiens)	-2.3
CCn1cc(C(=O)NCC2CCCO2)c(=O)c2cc(S(=O)(=O)N3CCCCC3)ccc21 (stereo not given)	Sphingosine 1-phosphate receptor 3 (Homo sapiens)	-0.3

Q) Lookup: activation / Sphingosine 1-phosphate receptor 3 (Homo sapiens) / `Cc1cccc2c1N(CC(=O)OC(C)C)C(=O)C2=O`
A) -0.6

Q) // repeat for `Cc1c2cnn(-c3ccccc3)c(=O)c2c(C)n1CCCC(=O)N1CCN(C)CC1` and report
A) -1.3

Q) Okay, and `C=CCn1c(N)c(C(=O)OCC(C)C)c2nc3ccccc3nc21` ?
A) 0.4

Q) How about `COC(=O)CN(c1nc(C)c(Cl)c(OC)n1)S(=O)(=O)c1ccc(C)cc1` ?
A) -1.1

Q) Entry to check: `COc1cccc(OCC(=O)Nc2ccccc2C(N)=O)c1`
A) -1.1

Q) Also need CCOC(=O)C1C(=O)C=C(c2ccc(OC)cc2)CC1c1ccco1 (stereo not given) , thanks.
A) -1.9

Q) Thanks! And `COc1ccc(C(=O)N(CCN2CCOCC2)CC(=O)NC2CCCC2)cc1OC` ?
A) 0.6

Q) Same for `CCc1c(C)c2c(C)[nH]nc2oc1=O`
A) 0.6

Q) Moving on to the next compound: O=C1CCC(Cc2ccccc2)N1 (stereo not given)
A) 0.3

Q) Now this one: `COc1ccc(CCn2c(-c3ccco3)nc3nc4ccccc4nc32)cc1OC`
A) -1.1

Q) Now try `Cc1occc1C(=O)Nc1cccc(Cn2cccn2)c1` .
A) -0.4

---

Molecular target: Sphingosine 1-phosphate receptor 3 (Homo sapiens)
Assay: human S1P3 receptor agonists, primary screen, cell-based, primary and confirmation, NFAT-BLA reporter (AID 373)
Conditions: S1P3 NFAT-BLA reporter cells, agonism, FRET ratio, at 4.5 µM, active compounds read high, relative to 1 µM S1P, basal subtracted
The whole screen tested about 60,000 compounds, of which about 60 (0.1%) were called active. The list comes from a sample in which actives are over-represented; it also holds close analogues and randomly drawn compounds.
Listed next: entries and their corresponding activation.
Your answer should be a plain number; it is taken to be in %.

Consider the following illustrative entries.
MOLECULE	QUANTITY_UNIT	activation
COc1ccccc1NC(=O)CN1CCN(S(=O)(=O)c2ccc(Br)cc2)CC1	%	-0.8
COCCn1c(C)cc(C(=O)CSc2ncnc3sc4c(c23)CCC4)c1C	%	-1
COCCOC(=O)C1=C(C)N=c2s/c(=C\c3cccs3)c(=O)n2C1c1cccs1 (centres undefined)	%	-2

Continue with the next molecule.
Q) Reported activation for `Cc1ccc(C(=O)N(CN2CCCC2=O)c2ccc(F)cc2)cc1` : what is it?
A) -1.3
